system: MOLT-4; assay: NCI tumour cell line growth inhibition, 48 h
Activity calls are given as the source filed them. Cut-off read from the data, not from the text of the source: active = GI50 up to about 1.1 µM and inactive = higher.
Respond using exactly one of the listed classes: active, inactive

# example entries with known answers
>  <Molecule>
Oc1cc(-c2ccccc2)nc2cc3c(cc12)OCO3

>  <Answer Label>
inactive

$$$$
>  <Molecule>
C(=N\Cc1ccccc1)/c1ccccc1-c1ccccc1/C=N/Cc1ccccc1

>  <Answer Label>
inactive

$$$$
>  <Molecule>
CC(C)OC(=O)C1=C2c3ncccc3C(=O)N2[C@@H](Cl)[C@H](Cl)[C@H]1Cl

>  <Answer Label>
inactive

$$$$
>  <Molecule>
N#CC1CC2(CCN1C(=O)c1ccccc1)OCCO2 (configuration not stated)

>  <Answer Label>
inactive

$$$$
>  <Molecule>
CCOc1ccccc1NC(=O)CCC(=O)OC

>  <Answer Label>
inactive

$$$$
>  <Molecule>
C[C@@H]1C[C@@H](O)[C@]2(O)O[C@@H]3C[C@@]4(C=O)[C@@H](CC[C@@H]5[C@@H]4CC[C@]4(C)[C@@H](C6=CC(=O)OC6)CC[C@]54O)C[C@H]3O[C@@H]2O1

>  <Answer Label>
active

$$$$
>  <Molecule>
Cc1cc(C)nc(NS(=O)(=O)c2ccc(Nc3c4ccccc4nc4c(C(=O)Nc5ccc(S(=O)(=O)N=C(N)N)cc5)ccc(Cl)c34)cc2)n1

>  <Answer Label>
inactive

$$$$
>  <Molecule>
CCOC(=O)NC(=O)c1cn(-c2ccc(CCOC(=O)CCCCCCCCC(=O)OCCc3ccc(-n4cc(C(=O)NC(=O)OCC)c(=O)[nH]c4=O)cc3)cc2)c(=O)[nH]c1=O

>  <Answer Label>
inactive

$$$$

[Q] Recorded test call requested for O=C(c1nc2ccccc2nc1O)C(O)c1ccccc1 (configuration not stated)
[A] inactive

[Q] Dear all, I need the recorded test outcome for O=c1[nH][nH]c(=O)c2c1ccc1oc3ccccc3c12 , thank you.
[A] inactive

[Q] // param item: C[N+](C)(C)/C=N\c1cccc2nsnc12 ; yields the recorded call
[A] inactive

[Q] Recorded test call requested for CN(C)C(CN)CC1=C(CC(CN)N(C)C)CCC1 (configuration not stated)
[A] inactive

[Q] Please share the test call associated with C=CCOCn1ccc(=O)[nH]c1=O .
[A] inactive

[Q] Answer briefly: the call reported for O=c1nc2n(cc1/C=C\Br)C1CC(O)C(CO2)O1 (configuration not stated) in this assay.
[A] inactive

[Q] Please state the recorded outcome for this molecule: CC[C@H](C)[C@H](NC(=O)[C@@]1(O)[C@H](O)[C@]2(CC)C=CCN3CC[C@@]4(c5cc(Br)c(OC)cc5N(C)[C@@H]14)[C@@H]32)C(=O)OC
[A] inactive

[Q] Test call for this molecule, please: CCCCCCCCCCN(CCCCCCCCCC)C(=O)COc1c2cc(C(C)(C)C)cc1Cc1cc(C(C)(C)C)cc(c1OCC(=O)N(CCCCCCCCCC)CCCCCCCCCC)Cc1cc(C(C)(C)C)cc(c1OCC(=O)N(CCCCCCCCCC)CCCCCCCCCC)Cc1cc(C(C)(C)C)cc(c1OCC(=O)N(CCCCCCCCCC)CCCCCCCCCC)C2
[A] inactive

[Q] Can you look up the reported call for Cc1cc2c(cc1Cl)SC(NN(C)C)=NS2(=O)=O for me?
[A] inactive

###

tested on: RPMI-8226; assay: NCI tumour cell line growth inhibition, 48 h
Activity calls are given as the source filed them. Rule as the data show it: active = GI50 up to about 1.1 µM and inactive = higher.
Hi there, use one of these labels in your reply, thanks! active, inactive

>  <Molecule>
Cc1ccccc1CN1CC=c2ccccc2=N1

>  <Answer Label>
inactive

$$$$
>  <Molecule>
C[N+](C)(C)CCC(=O)N1C/C(=C\c2ccccc2)C(=O)/C(=C/c2ccccc2)C1

>  <Answer Label>
active

$$$$
>  <Molecule>
CCCNCCCC(NC(C)=O)C(=O)NCc1ccccc1 (stereo not given)

>  <Answer Label>
inactive

$$$$
>  <Molecule>
CCOC(=O)C(C)c1nc2cc(F)c(N3CCOCC3)cc2[nH]c1=O (stereo not given)

>  <Answer Label>
inactive

$$$$
>  <Molecule>
CCOC(=O)C1=CC(C)(C(=O)OCC)Nc2c(nc(OC)n(C)c2=O)N1 (stereo not given)

>  <Answer Label>
inactive

$$$$

[Q] Any idea what this test logged for NCC(O)CSCc1ccc(Cl)cc1 (stereo not given) ?
[A] inactive
